# reported IC50; entries follow
# tgt: T1, human MCH-1R (human, UniProt Q99705 1-353)
# T1 construct: also called MCH-R1
# experiment_description: SPA competition with [125I]-human MCH (Phe13, Tyr19) on receptor membranes
Bridges are numbered along the chain shown (N, C = ends). [ ]: non-standard residue; d: D form. dCha = N[C@H](CC1CCCCC1)C(=O)O
State the answer as a number, implicitly in nM.

Some solved entries appear below for comparison.
binder: RCMLLRVYRPC (also called Leu^10) [SEQ. ID. NO. 8]
measured_metric: IC50
value: 0.06
//
binder: Ac-CMLGRVYRPC-NH2 (disulfide 1-10; not fully specified, positions numbered as in hMCH; also called ?Arg^6) [SEQ. ID. NO. 3]
measured_metric: IC50
value: 1.6

// moving on: another record for IC50
IC50 measured on Ac-RCML[dCha]RVYRPC-NH2 (disulfide 2-11 (inferred), also called D-Cha^10) [SEQ. ID. NO. 16] = 11
